# target_or_test_system: Rho kinase
# Construct: IC50 for Rho kinase
# procedure_details: Rho-kinase assay (measurement of kinase inhibitory activity)
# measurement_parameters: method of Patent Document 1
pIC50: −log10 of the molar value. Structures can show the parent of a compound that is named as a salt.

>  <compound>
C[C@H]1CNCCCN1S(=O)(=O)c1cccc2cncc(Br)c12 [Dihydrochloride of Compound (1) X = Br]

>  <pIC50>
8.24

$$$$
>  <compound>
Cc1cncc2cccc(S(=O)(=O)N3CCCNC[C@@H]3C)c12 [Reference Compound B, hydrochloride, reference compound]

>  <pIC50>
7.92

$$$$
>  <compound>
CC1CNCCCN1S(=O)(=O)c1cccc2cncc(Cl)c12 (stereo not shown) [Dihydrochloride of Compound (1) X = Cl]

>  <pIC50>
7.59

$$$$
>  <compound>
C[C@H]1CNCCCN1S(=O)(=O)c1cccc2cncc(F)c12 [Dihydrochloride of Compound (1) X = F]

>  <pIC50>
7.07

$$$$
